All values here come from ChEMBL document CHEMBL2390826.

- Experiment Description: Aqueous solubility of the compound in PBS buffer at 100 uM after 24 hrs by LC/CLND analysis
- Assay type: physicochemical
Property Name: solubility at 24 h, 100 µM (µM)

| Molecule | Unit Descriptor | solubility at 24 h, 100 µM |
| --- | --- | --- |
| N[C@H]1CC[C@H](NS(=O)(=O)c2ccc(NC(=O)NCc3cccnc3)cc2)CC1 | µM | 161 |
| C[C@@H]1CN(S(=O)(=O)c2ccc(NC(=O)NCc3cccnc3)cc2)C[C@H](C)O1 | µM | 112 |
| Nc1ccc(CNC(=O)Nc2ccc(S(=O)(=O)c3ccccc3)cc2)cn1 | µM | 109 |
| CC1CNCCN(S(=O)(=O)c2ccc(NC(=O)NCc3cccnc3)cc2)C1 (racemic) | µM | 107 |

[A] O=C(NCc1cccnc1)Nc1ccc(S(=O)(=O)N[C@H]2CCC[C@H](O)C2)cc1
[B] O=C(NCc1cccnc1)Nc1ccc(S(=O)(=O)N2CCC3(CCNC3)CC2)cc1
[Q] Between A and B , whose recorded solubility at 24 h, 100 µM is greater? Please indicate the selected item by its label.
[A] A
